Assignment: determine reported CC50 at 72 h for the given compounds.
assay: Cytotoxicity against human Huh7/C24 after 72 hrs; type: cell-based, Huh-7; conditions: Huh7/C24 cells

Query: Give the measured CC50 at 72 h of CS(=O)(=O)Nc1ccc2c(c1)S(=O)(=O)N=C(C1=C(O)C3CCCC3N(CCC3CC3)C1=O)N2 (racemic) .
Reply: > 33 µM

Query: Then this compound: CS(=O)(=O)Nc1ccc2c(c1)S(=O)(=O)N=C(C1=C(O)C3CCCC3N(Cc3ccc(F)cn3)C1=O)N2 (racemic)
Reply: > 33 µM

Query: Then this compound: CS(=O)(=O)Nc1ccc2c(c1)S(=O)(=O)N=C(C1=C(O)[C@@H]3CCCC[C@@H]3N(Cc3ccc(F)cc3)C1=O)N2
Reply: > 33 µM

Query: Then this compound: CS(=O)(=O)Nc1ccc2c(c1)S(=O)(=O)N=C(C1=C(O)C3CCCC3N(Cc3ccccc3)C1=O)N2 (racemic)
Reply: > 33 µM

Query: Then this compound: CS(=O)(=O)Nc1ccc2c(c1)S(=O)(=O)N=C(C1=C(O)[C@H]3CCC[C@H]3N(Cc3ccc(C(F)(F)F)cc3)C1=O)N2
Reply: > 33 µM

Query: Then this compound: CS(=O)(=O)Nc1ccc2c(c1)S(=O)(=O)N=C(C1=C(O)C3CCCC3N(CCc3ccccc3)C1=O)N2 (racemic)
Reply: > 33 µM

Query: Then this compound: CS(=O)(=O)Nc1ccc2c(c1)S(=O)(=O)N=C(C1=C(O)[C@H]3CCC[C@H]3N(Cc3ccc(F)cc3)C1=O)N2
Reply: > 100 µM

Query: Then this compound: CC(C)CCN1C(=O)C(C2=NS(=O)(=O)c3cc(NS(C)(=O)=O)ccc3N2)=C(O)[C@H]2CCC[C@H]21
Reply: > 1 µM

Query: Then this compound: CS(=O)(=O)Nc1ccc2c(c1)S(=O)(=O)N=C(C1=C(O)C3CCCCC3N(Cc3ccc(F)cc3)C1=O)N2 (racemic)
Reply: > 33 µM

---

tested on: Cynomolgus monkey; experiment: AUC (0 to infinity) in cynomolgus monkey at 1 mg/kg, iv; type: ADME, organism-based, Macaca fascicularis, Plasma; design: dose 1 mg/kg, route intravenous, time infinity; settings: in vivo
Property measured: AUC (ng·h/mL)
Answer with a number only, understood to be in ng·h/mL.

Query: Give the measured AUC of CS(=O)(=O)Nc1ccc2c(c1)S(=O)(=O)N=C(c1c(O)c3cccn3n(Cc3ccc(F)cc3)c1=O)N2 .
Reply: 539

Query: Then this molecule: CC(C)(C)CCN1C(=O)C(C2=NS(=O)(=O)c3cc(NS(C)(=O)=O)ccc3N2)=C(O)C2CCCCC21 (racemic)
Reply: 3520

Query: Then this molecule: CS(=O)(=O)Nc1ccc2c(c1)S(=O)(=O)N=C(C1=C(O)[C@H]3CCCC[C@H]3N(Cc3ccc(F)cc3)C1=O)N2
Reply: 25300

Query: Then this molecule: CC(C)(C)CCN1C(=O)C(C2=NS(=O)(=O)c3cc(NS(C)(=O)=O)ccc3N2)=C(O)C2CCCC21 (racemic)
Reply: 6920

Query: Then this molecule: CS(=O)(=O)Nc1ccc2c(c1)S(=O)(=O)N=C(C1=C(O)[C@H]3CCC[C@H]3N(Cc3ccc(F)c(F)c3)C1=O)N2
Reply: 16000

---

experiment: Metabolic stability in human liver microsomes assessed as half life; format: ADME, Microsome
Assignment: determine reported half-life for the given compounds.

Query: Give the measured half-life of CS(=O)(=O)Nc1ccc2c(c1)S(=O)(=O)NC(C1=C(O)[C@@H]3CCC[C@@H]3N(Cc3ccc(F)cc3)C1=O)=N2 .
Reply: > 1 h

Query: Then this compound: Cc1cccc(CN2C(=O)C(C3=NS(=O)(=O)c4cc(NS(C)(=O)=O)ccc4N3)=C(O)[C@H]3CCC[C@H]32)c1
Reply: > 1 h

Query: Then this compound: CS(=O)(=O)Nc1ccc2c(c1)S(=O)(=O)N=C(C1=C(O)C3CCCC3N(Cc3ccc(Cl)cc3)C1=O)N2 (racemic)
Reply: > 1 h

Query: Then this compound: CS(=O)(=O)Nc1ccc2c(c1)S(=O)(=O)N=C(C1=C(O)[C@H]3CCC[C@H]3N(Cc3ccc(C(F)(F)F)cc3)C1=O)N2
Reply: > 1 h

Query: Then this compound: CS(=O)(=O)Nc1ccc2c(c1)S(=O)(=O)N=C(C1=C(O)[C@H]3CCC[C@H]3N(CC3CC3)C1=O)N2
Reply: > 1 h

Query: Then this compound: CS(=O)(=O)Nc1ccc2c(c1)S(=O)(=O)N=C(C1=C(O)C3CCCCCC3N(Cc3ccc(F)cc3)C1=O)N2 (racemic)
Reply: 0.783 h

Query: Then this compound: CC(C)(C)CCN1C(=O)C(C2=NS(=O)(=O)c3cc(NS(C)(=O)=O)ccc3N2)=C(O)C2CCCCCC21 (racemic)
Reply: 0.45 h

Query: Then this compound: CS(=O)(=O)Nc1ccc2c(c1)S(=O)(=O)N=C(C1=C(O)C3CCCC3N(Cc3ccc(F)cc3)C1=O)N2 (racemic)
Reply: > 1 h

Query: Then this compound: CS(=O)(=O)Nc1ccc2c(c1)S(=O)(=O)N=C(C1=C(O)[C@H]3CCC[C@H]3N(Cc3cccc(C(F)(F)F)c3)C1=O)N2
Reply: > 1 h

---

assay: Cytotoxicity against human Huh7/C24 after 72 hrs; format: cell-based, Huh-7; conditions: Huh7/C24 cells
Property measured: CC50 at 72 h

Query: Give the measured CC50 at 72 h of Cc1cccc(CN2C(=O)C(C3=NS(=O)(=O)c4cc(NS(C)(=O)=O)ccc4N3)=C(O)[C@H]3CCC[C@H]32)c1 .
Reply: > 1 µM

Query: Then this compound: CC(C)(C)CCN1C(=O)C(C2=NS(=O)(=O)c3cc(NS(C)(=O)=O)ccc3N2)=C(O)C2CCCC21 (racemic)
Reply: > 1 µM

Query: Then this compound: CCN1C(=O)C(C2=NS(=O)(=O)c3cc(NS(C)(=O)=O)ccc3N2)=C(O)C2CCCC21 (racemic)
Reply: > 33 µM

Query: Then this compound: CS(=O)(=O)Nc1ccc2c(c1)S(=O)(=O)N=C(C1=C(O)[C@H]3CCC[C@H]3N(Cc3ccc(F)c(F)c3)C1=O)N2
Reply: > 1 µM

Query: Then this compound: CS(=O)(=O)Nc1ccc2c(c1)S(=O)(=O)N=C(C1=C(O)[C@H]3CCC[C@H]3N(Cc3cccc(C(F)(F)F)c3)C1=O)N2
Reply: > 33 µM

Query: Then this compound: CS(=O)(=O)Nc1ccc2c(c1)S(=O)(=O)N=C(C1=C(O)C3CCCC3N(Cc3ccc(F)cc3)C1=O)N2 (racemic)
Reply: > 1 µM

Query: Then this compound: CC(C)(C)CCN1C(=O)C(C2=NS(=O)(=O)c3cc(NS(C)(=O)=O)ccc3N2)=C(O)C2CCCCCC21 (racemic)
Reply: > 10 µM

Query: Then this compound: CC(C)N1C(=O)C(C2=NS(=O)(=O)c3cc(NS(C)(=O)=O)ccc3N2)=C(O)C2CCCC21 (racemic)
Reply: > 33 µM

Query: Then this compound: Cc1cc(CN2C(=O)C(C3=NS(=O)(=O)c4cc(NS(C)(=O)=O)ccc4N3)=C(O)[C@H]3CCC[C@H]32)ccc1F
Reply: > 1 µM

Query: Then this compound: CS(=O)(=O)Nc1ccc2c(c1)S(=O)(=O)N=C(C1=C(O)[C@H]3CCC[C@H]3N(Cc3ccc(F)c(Cl)c3)C1=O)N2
Reply: > 1 µM

Query: Then this compound: CS(=O)(=O)Nc1ccc2c(c1)S(=O)(=O)N=C(C1=C(O)C3CCCC3N(Cc3ccc(Cl)cc3)C1=O)N2 (racemic)
Reply: > 10 µM

Query: Then this compound: CS(=O)(=O)Nc1ccc2c(c1)S(=O)(=O)N=C(C1=C(O)C3CCCCCC3N(Cc3ccc(F)cc3)C1=O)N2 (racemic)
Reply: > 33 µM

Query: Then this compound: CS(=O)(=O)Nc1ccc2c(c1)S(=O)(=O)N=C(C1=C(O)C3CCCCC3N(C3CCCCC3)C1=O)N2 (racemic)
Reply: > 33 µM

Query: Then this compound: CC(C)(C)CCN1C(=O)C(C2=NS(=O)(=O)c3cc(NS(C)(=O)=O)ccc3N2)=C(O)[C@H]2CCC[C@H]21
Reply: > 1 µM

---

test: Cytotoxicity against human Huh7/C24 after 72 hrs; assay type: cell-based, Huh-7; conditions: Huh7/C24 cells
Assignment: determine reported CC50 at 72 h for the given molecules.

Query: Give the measured CC50 at 72 h of CS(=O)(=O)Nc1ccc2c(c1)S(=O)(=O)N=C(C1=C(O)C3CCCC3N(C3CCCCC3)C1=O)N2 (racemic) .
Reply: > 10 µM

Query: Then this molecule: CS(=O)(=O)Nc1ccc2c(c1)S(=O)(=O)N=C(C1=C(O)C3CCCCCCC3N(Cc3ccc(F)cc3)C1=O)N2 (racemic)
Reply: > 33 µM

Query: Then this molecule: CC(C)CCN1C(=O)C(C2=NS(=O)(=O)c3cc(NS(C)(=O)=O)ccc3N2)=C(O)C2CCCCC21 (racemic)
Reply: > 33 µM

Query: Then this molecule: CS(=O)(=O)Nc1ccc2c(c1)S(=O)(=O)N=C(C1=C(O)[C@H]3CCCC[C@H]3N(Cc3ccc(F)cc3)C1=O)N2
Reply: > 1 µM
